biological target: SHP2-C SH2; assay: SH2 binding enrichment of the phosphorylated peptide, bacterial display (enrichment ratio); higher = better substrate or ligand; peptides without Tyr show the background
observedProperty: SH2 binding enrichment

1. ADRNHYRRFRR [YBX1_Y145_P149R_YF]	0.659
2. CTTIHYNYVCN [TP53_Y234_M237V]	4.2
3. QLAPQYTFTQG [FLNA_Y1761_A1764T_YF]	0.5
4. IFGVSYGEFRF [CFTR_Y512_D513G_YF]	1.08
5. DQVEQYKKELE [LMNA_Y259]	0.66
6. DAAEDYAEGVC [DHODH_Y194_R199C]	0.598
7. RRERLYGGGGG [FUS_Y526_P525L]	0.404
8. FFRCHYPLTTL [TNS4_Y644_R642C]	1.03
9. GLGGVYGGASG [KRT8_Y54_G53V]	0.709
10. ARAFIYAIIPA [ACKtide_2014]	0.777
11. LNPDGYKKAFE [CPXM2_Y427_E428K_YF]	0.578
12. KQNSLYSFSDH [CCDC82_Y331]	0.609
13. RAMRRYLEWGE [ERBB3_Y680_R683W]	0.571
14. PATINYPFEKG [NDUFS8_Y84]	0.587
15. DKNSSYFADWF [TUBB8_Y340_L345F]	0.821
16. YSIDYYRVGGH [NTRK2_Y707_T704I]	0.753
17. TPTFPYLLPKS [PLD2_Y580_YF]	1.01
18. EAVKNYTEKRG [PBRM1_Y672_D674E]	0.612
19. LGRKLYSIAAP [ABHD12_Y345]	0.583

* * *

molecular target: Grb2 SH2 (UniProt P62993); experiment: SH2 binding enrichment of the phosphorylated peptide, bacterial display (enrichment ratio); higher = better substrate or ligand; peptides without Tyr show the background
Sequence (P62993 whole entry, looked up): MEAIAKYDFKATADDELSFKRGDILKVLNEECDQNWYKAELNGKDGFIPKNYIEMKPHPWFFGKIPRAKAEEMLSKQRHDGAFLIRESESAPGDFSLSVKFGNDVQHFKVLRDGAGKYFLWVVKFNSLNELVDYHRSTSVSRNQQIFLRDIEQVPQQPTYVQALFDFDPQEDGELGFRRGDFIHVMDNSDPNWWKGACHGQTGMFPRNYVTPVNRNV
I would appreciate it if you labelled entries 1 when SH2 binding enrichment is 0.9 or higher, otherwise -1.

1. EFKDAYKFAAD [BRDT_Y335_YF]	-1
2. DFFDLYGGEKK [PTPN11_Y66_F71K_YF]	1
3. PPVVNYEEDAR [FER_Y402]	-1
4. GLSAPYVKIHL [SYT2_Y309_D307A]	1
5. VRFMAYTDETC [F8_Y450_F455C]	-1
6. SHNELYYEAAE [VANGL1_Y344_E347A]	-1
7. EFKDAYTFAAD [BRDT_Y335_K336T_YF]	-1
8. RVDRDYVLKSA [HTATIP2_Y111]	1
9. EGDGVYTLNNE [HP_Y125]	-1

* * *

test system: c-Src; assay: phosphorylation enrichment, bacterial display (enrichment ratio); higher = better substrate or ligand; peptides without Tyr show the background
observedProperty: phosphorylation enrichment

1) DFPMGYPSYLA [TBCK_Y153_I151M]	0.416
2) EMTAEYTCTRK [ACAD9_Y325_A326T]	0.477
3) LGLDECLDKLK [FMNL2_Y352_Y352C]	0.92
4) AHPIIYDIIEA [PYKtide_D_2014]	6.44
5) QEGPEYWDEET [HLA-A_Y83_Q86E]	0.796
6) SGVVPYEPPEV [TP53_Y220_V216G]	0.481
7) MHDSNCVSKGS [PDGFRA_Y849_Y849C]	0.414
8) PGGNIYISPLK [RB1_Y805]	0.757
9) FFFDLYGGEKF [PTPN11_Y66_D61Y_YF]	1.15
10) MENFIYESMRY [CYP19A1_Y361]	6.18

* * *

target: FGFR1 (UniProt P11362); experiment: phosphorylation enrichment, bacterial display (enrichment ratio); higher = better substrate or ligand; peptides without Tyr show the background
Sequence (P11362 whole entry, looked up): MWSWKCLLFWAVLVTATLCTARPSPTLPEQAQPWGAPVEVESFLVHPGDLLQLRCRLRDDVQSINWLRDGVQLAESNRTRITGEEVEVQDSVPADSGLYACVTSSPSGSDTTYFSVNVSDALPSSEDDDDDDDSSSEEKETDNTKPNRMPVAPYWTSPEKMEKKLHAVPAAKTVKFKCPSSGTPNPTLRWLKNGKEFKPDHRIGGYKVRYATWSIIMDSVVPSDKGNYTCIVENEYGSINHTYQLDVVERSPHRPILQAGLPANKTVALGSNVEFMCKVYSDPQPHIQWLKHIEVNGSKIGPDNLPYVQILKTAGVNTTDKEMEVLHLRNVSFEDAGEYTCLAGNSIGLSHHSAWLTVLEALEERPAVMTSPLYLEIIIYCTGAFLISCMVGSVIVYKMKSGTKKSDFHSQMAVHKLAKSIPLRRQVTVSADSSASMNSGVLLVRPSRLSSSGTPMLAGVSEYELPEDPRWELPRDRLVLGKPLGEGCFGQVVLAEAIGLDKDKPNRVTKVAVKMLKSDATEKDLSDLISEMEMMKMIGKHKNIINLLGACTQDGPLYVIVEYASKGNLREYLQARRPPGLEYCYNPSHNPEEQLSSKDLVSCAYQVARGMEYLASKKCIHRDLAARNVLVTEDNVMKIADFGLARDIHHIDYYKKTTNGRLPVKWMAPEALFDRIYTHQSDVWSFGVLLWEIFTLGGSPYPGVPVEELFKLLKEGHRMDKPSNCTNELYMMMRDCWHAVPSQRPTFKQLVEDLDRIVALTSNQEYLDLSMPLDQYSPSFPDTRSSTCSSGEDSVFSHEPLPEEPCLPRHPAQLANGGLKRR
Entries and their measured phosphorylation enrichment follow.
observedProperty: phosphorylation enrichment

1) ARIVDYNIIGW [MYH7_Y588_G584R]	0.81
2) HFVDEYDQTIE [KRAS_Y32_P34Q]	0.93
3) LGLDECLDKLK [FMNL2_Y352_Y352C]	1.28
4) LFSGDCFRIQG [DDR2_Y740_Y740C_YF]	0.516
5) YSGDCYRIQGR [DDR2_Y741_Y740C]	0.483
6) GGFTRYCDGKK [PROS1_Y266_C265R_YF]	0.369
7) INMKKYCKKDY [NTN1_Y490]	0.45

* * *

Entries and their measured phosphorylation enrichment follow.
system: c-Src; assay: phosphorylation enrichment, bacterial display (enrichment ratio); higher = better substrate or ligand; peptides without Tyr show the background
observedProperty: phosphorylation enrichment

1) SVVLPYEPPEV [TP53_Y220_V218L]	0.592
2) IMAYFYMCDSA [CASD1_Y382_R386S]	0.69
3) QSPQLYKQMCI [DARS1_Y253]	0.485
4) SLQFEYVHFGG [CDC14A_Y591_S589F_YF]	0.604
5) RLMLQYDAVVN [SLC25A32_Y152]	0.406
6) GSRGKYFSGFR [ATM_Y332_S333F]	0.616
7) EEGNPYYSSAR [MCCC2_Y520]	1.99
8) SREDIYKRNTE [PDE4DIP_Y45_I49T]	0.451
9) VNYQPYRKHKY [TEX37_Y28_D24N]	0.537
10) ETLLFYGCRRS [POR_Y564_YF]	0.563
11) YSGDCYRIQGR [DDR2_Y741_Y740C]	0.374
12) TGNGYYFRVFS [MYBPC3_Y1136_I1131T]	0.332
13) RRERLYGGGGG [FUS_Y526_P525L]	0.878
14) QRHFVYFFSFL [PTEN_Y176_R173H_YF]	0.664
15) FQGGTYSKACT [FGG_Y380_S384C_YF]	0.447
16) LDFPEYDGVDR [CASQ1_Y43]	1.5
17) SLDHPFEKPRK [INAVA_Y333_Y333F]	0.436
18) CASQLCPRHKH [DCTN4_Y263_Y263C]	0.312
19) AQESNYRLLRQ [SLC20A2_Y377_R382Q]	0.397
20) EYGRRYGFSCQ [CCDC93_Y209_R213C]	0.483
21) LVMFIYAISGM [SCN1A_Y1684_F1687S]	0.85
22) PVADPYDQSFE [MAPK14_Y323]	0.982
23) EVASVYESFQP [MAVS_Y92_Q93E_YF]	8.96
24) GSERRYTREGG [PTPRN2_Y139_S140T]	0.482
25) KDFNKYVAFIE [KDM4B_Y31_YF]	0.456
26) ENKGVYVLMSG [IVD_Y277]	0.788
27) CTLLPYYSARV [DGKE_Y269]	0.579

* * *

# phosphorylation enrichment values compiled below
molecular target: Fyn (UniProt P06241); experiment: phosphorylation enrichment, bacterial display (enrichment ratio); higher = better substrate or ligand; peptides without Tyr show the background
Sequence (P06241 whole entry, looked up): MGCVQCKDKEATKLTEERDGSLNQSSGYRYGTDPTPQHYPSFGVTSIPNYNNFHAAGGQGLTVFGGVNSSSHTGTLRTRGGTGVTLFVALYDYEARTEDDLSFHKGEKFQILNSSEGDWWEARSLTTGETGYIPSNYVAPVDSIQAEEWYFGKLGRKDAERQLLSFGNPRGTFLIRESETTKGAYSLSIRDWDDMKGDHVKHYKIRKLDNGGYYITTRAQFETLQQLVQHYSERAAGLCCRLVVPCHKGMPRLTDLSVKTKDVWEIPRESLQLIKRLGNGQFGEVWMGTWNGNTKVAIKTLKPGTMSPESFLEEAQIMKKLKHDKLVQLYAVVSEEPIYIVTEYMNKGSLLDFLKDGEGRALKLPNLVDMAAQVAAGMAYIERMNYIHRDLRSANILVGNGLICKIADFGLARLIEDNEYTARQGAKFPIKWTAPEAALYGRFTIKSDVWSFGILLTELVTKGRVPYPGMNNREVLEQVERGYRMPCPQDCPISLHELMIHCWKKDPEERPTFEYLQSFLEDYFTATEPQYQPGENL
observedProperty: phosphorylation enrichment

1) IGEVVYQRAVM [GRIN2A_Y502]	1.14
2) LKGQVDILGRE [ASS1_Y359_Y359D]	0.559
3) EEGEEYGGGGG [TUBA1A_Y451]	0.557
4) GHNDVYISKHV [GRIN2A_Y1423_E1426K]	0.423
5) FQNSLYAPDFS [FAM92A_Y226_R222Q_YF]	2.08
6) EVKEAYMGNVL [ACAT1_Y90]	0.474
7) CGLPRYRWLTH [TSPAN12_Y143_Y138C]	0.707
8) ELAKYYKLHHI [AK7_Y391_N389K]	0.41
9) AEQEEYSAMRD [NRAS_Y64_G60E]	0.458
10) TEGNEYVFRVA	0.583
11) GVTLLYFGRDN [ADGRD1_Y85_Y89D_YF]	0.353

* * *

biological target: Hck (UniProt P08631); experiment: phosphorylation enrichment, bacterial display (enrichment ratio); higher = better substrate or ligand; peptides without Tyr show the background
Sequence (P08631 whole entry, looked up): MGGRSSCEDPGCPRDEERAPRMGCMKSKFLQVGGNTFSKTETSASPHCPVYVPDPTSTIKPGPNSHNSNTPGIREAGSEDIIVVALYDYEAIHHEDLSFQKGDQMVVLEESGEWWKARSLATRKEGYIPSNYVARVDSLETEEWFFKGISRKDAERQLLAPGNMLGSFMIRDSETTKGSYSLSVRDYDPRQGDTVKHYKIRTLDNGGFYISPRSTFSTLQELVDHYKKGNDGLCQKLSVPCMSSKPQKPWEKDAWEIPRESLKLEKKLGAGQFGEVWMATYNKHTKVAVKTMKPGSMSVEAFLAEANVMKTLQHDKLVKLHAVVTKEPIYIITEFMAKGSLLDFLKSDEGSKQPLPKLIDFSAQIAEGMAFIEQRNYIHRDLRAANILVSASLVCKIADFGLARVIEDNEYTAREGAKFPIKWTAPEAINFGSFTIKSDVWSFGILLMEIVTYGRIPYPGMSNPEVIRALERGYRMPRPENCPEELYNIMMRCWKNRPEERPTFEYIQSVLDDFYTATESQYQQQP
Lab note: class by phosphorylation enrichment, see A = under 0.5, B = from 0.5 up to 0.8, C = 0.8 and over

1) HSVLNYGVCVC [JAK2_Y613_L609S]	B
2) HEVHIYENSGA [ARPC1B_Y35_K37N]	C
3) PPVVNYEEDAR [FER_Y402]	B
4) GEFFRYLAEVA [YWHAG_Y133_D129E_YF]	A
5) LGGAMYYLEAD [PKHD1_Y452_E457D]	C
6) PPSLSYLSFEG [EXOSC3_Y143_A139P]	B

* * *

target: Hck (UniProt P08631); test: phosphorylation enrichment, bacterial display (enrichment ratio); higher = better substrate or ligand; peptides without Tyr show the background
Class y: phosphorylation enrichment at least 0.6. Class n: phosphorylation enrichment below 0.6.

1. LGGAMYFLEAD [PKHD1_Y452_E457D_YF]	n
2. AEEKEYHAEEG [EGFR_Y869_G873E]	n
3. SRNSKYNAEST [PSEN1_Y315_K311R]	n
4. HFVDEYDQTIE [KRAS_Y32_P34Q]	y
5. NNKKDYFDMFE [SLC26A3_Y526_K521N_YF]	n
6. IIRQLYLKWHP [SACS_Y4333_R4331Q]	y
7. MKGEFYRFLAE [YWHAG_Y131_D129E_YF]	n
8. PSPMPYAFCQM [FOXL2_Y215_S217F]	y
9. SSSNPYSTVTM [ACTN2_Y599]	y
10. VPLLEYFRDIF [CDAN1_Y712_YF]	n
11. ELTTCYRKKCC [CCBE1_Y70]	n
12. RTTKTYFPHFD [HBA1_Y43_P38R]	n
13. CKRQFYLYKGK [RSPO4_Y112]	n
14. RAMRRYLEWGE [ERBB3_Y680_R683W]	y
15. AVDMTYDGHPV [FLNB_Y1020_V1018M]	y
16. KFVVVYFREID [IL17RB_Y447_YF]	n
17. HHIDYYKETTN [FGFR1_Y654_K656E]	y
18. LTFDEYRNNSQ [ANXA3_Y216_I219N]	n
19. PFQGAYLKINK [MYO1B_Y967_E969K]	y
20. FEEDSYVKRSQ [RET_Y905_YF]	n
21. LRSRVYEVPVE [SLC26A3_Y756_N753S]	y
22. EGDGVYTLNNE [HP_Y125]	y
23. KRTFEYEAEKN [DENND2B_Y396_D399E]	n
24. IFGVSYGEFRF [CFTR_Y512_D513G_YF]	y
